MEASUREMENT NOTES: Solubility of Compound I in solvents at room temperature (about 25° C.)
Assay type: physicochemical
STUDY CONDITIONS: organic solvent or mixture, thermodynamic from solid, 1-butanol, read-out: Solubility (estimated)
QUANTITY MEASURED: solubility

## Task For the compound shown here, "COc1ccc(C(=O)NC2(C(=O)O)Cc3ccccc3C2)cc1OCCc1cccc(C)c1" , give the reported solubility.
## Result < 2 mg/mL

---

MEASUREMENT NOTES: Solubility of Compound I in solvents at room temperature (about 25° C.)
Type: physicochemical
STUDY CONDITIONS: thermodynamic from solid, water, read-out: Solubility (estimated)
QUANTITY MEASURED: solubility

## Task For the molecule shown here, COc1ccc(C(=O)NC2(C(=O)O)Cc3ccccc3C2)cc1OCCc1cccc(C)c1 [Compound I] , give the reported solubility.
## Result < 2000 µg/mL
